target: androgen receptor (AR) (Homo sapiens, UniProt P10275, T878A); construct: LNCaP cells were transiently transfected with the PSA (6.1 kb)-luciferase reporter for 24 h; endogenous in cells; host or cells: LNCaP; experiment: Androgen-induced PSA (6.1 kb)-luciferase reporter assay in LNCaP cells; format: cell-based; conditions: LNCaP cells transfected with PSA (6.1 kb)-luciferase reporter, R1881 1 nM, 24 h; read-out: PSA-Luc IC50 Range
Sequence (P10275 whole entry T878A): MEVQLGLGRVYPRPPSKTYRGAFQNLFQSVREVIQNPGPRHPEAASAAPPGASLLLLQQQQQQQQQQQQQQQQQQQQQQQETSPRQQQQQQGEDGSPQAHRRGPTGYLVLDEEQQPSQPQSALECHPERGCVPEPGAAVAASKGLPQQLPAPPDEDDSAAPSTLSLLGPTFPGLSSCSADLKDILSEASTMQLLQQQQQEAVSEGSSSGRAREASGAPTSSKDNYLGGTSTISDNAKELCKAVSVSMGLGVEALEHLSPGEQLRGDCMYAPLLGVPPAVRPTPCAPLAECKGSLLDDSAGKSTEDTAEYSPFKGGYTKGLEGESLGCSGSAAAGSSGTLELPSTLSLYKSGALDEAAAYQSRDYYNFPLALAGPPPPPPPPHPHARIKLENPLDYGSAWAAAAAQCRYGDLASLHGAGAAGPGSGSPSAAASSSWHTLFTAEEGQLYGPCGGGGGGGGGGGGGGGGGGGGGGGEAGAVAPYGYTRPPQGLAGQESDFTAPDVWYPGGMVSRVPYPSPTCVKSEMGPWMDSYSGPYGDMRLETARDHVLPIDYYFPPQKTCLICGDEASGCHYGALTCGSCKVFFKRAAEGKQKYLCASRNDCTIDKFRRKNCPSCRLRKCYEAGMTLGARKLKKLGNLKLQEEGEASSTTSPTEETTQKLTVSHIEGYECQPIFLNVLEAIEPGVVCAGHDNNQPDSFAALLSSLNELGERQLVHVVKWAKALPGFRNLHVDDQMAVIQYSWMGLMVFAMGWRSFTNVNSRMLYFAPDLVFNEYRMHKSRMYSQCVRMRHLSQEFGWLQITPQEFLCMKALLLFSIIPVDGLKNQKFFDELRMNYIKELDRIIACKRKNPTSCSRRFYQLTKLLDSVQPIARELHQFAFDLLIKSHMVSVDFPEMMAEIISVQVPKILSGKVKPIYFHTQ
MEASURED_PROPERTY: IC50

COMPOUND: CC(C)(c1ccc(OCc2coc(N)n2)cc1)c1cc(Cl)c(OCCCl)c(C#N)c1 [Compound A155]
RESULT: < 500 nM
//
COMPOUND: CC(C)(c1ccc(CN2C(=O)N(S(C)(=O)=O)C(C)(C)C2=O)cc1)c1cc(Cl)c(OCCCl)c(Cl)c1 [Compound B3]
RESULT: 500 to 2000 nM

Quick batch: IC50 for everything below.
1. CC(C)(c1ccc(OCc2nc(NS(C)(=O)=O)cs2)cc1)c1cc(Cl)c(OCCCl)c(C#N)c1 [Compound A137]
2. CC(Oc1ccc(C(C)(C)c2cc(Cl)c(OCCCl)c(C#N)c2)cc1)c1ccnc(S(C)(=O)=O)n1 (stereo not drawn) [Compound A147]
3. CC(C)(c1ccc(-c2c[nH]c(CNS(C)(=O)=O)n2)cc1)c1cc(Cl)c(OCCCCl)c(Cl)c1 [Compound A25]

1: < 500 nM; 2: > 2000 nM; 3: > 2000 nM

Quick batch: IC50 for everything below.
1. CC(C)(c1ccc(OCc2csc(NS(C)(=O)=O)n2)cc1)c1cc(Cl)c(OCCCl)c(C#N)c1 [Compound A134]
2. CC(C)(c1ccc(N2C(=O)N(N)C(C)(C)C2=O)cc1)c1cc(Cl)c(OCCCl)c(Cl)c1 [Compound B6]
3. CC(O)(c1ccc(OCc2ocnc2S(C)(=O)=O)cc1)c1cc(Cl)c(OCCCl)c(C#N)c1 (stereo not drawn) [Compound A77]

1. 500 to 2000 nM
2. > 2000 nM
3. 500 to 2000 nM

Quick batch: IC50 for everything below.
1. CN1C(=O)N(Cc2ccc(C(C)(C)c3cc(Cl)c(OCCCl)c(Cl)c3)cc2C#N)C(=O)C1(C)C [Compound B8]
2. CC(C)(c1ccc(NC(=O)c2ocnc2S(C)(=O)=O)cc1)c1cc(Cl)c(OCCCl)c(Cl)c1 [Compound A73]
3. COc1ncc(COc2ccc(C(C)(C)c3cc(Cl)c(OCCCl)c(C#N)c3)cc2)o1 [Compound A112]
4. CC(C)(c1ccc(OCc2ccnc(N3CCCS3(=O)=O)n2)cc1)c1cc(Cl)c(OCCCl)c(C#N)c1 [Compound A199]
5. CSc1nnc(COc2ccc(C(C)(C)c3cc(Cl)c(OCCCCl)c(Cl)c3)cc2)o1 [Compound A17]
6. CC(C)(c1cnc(NCc2ocnc2S(C)(=O)=O)nc1)c1cc(Cl)c(OCCCl)c(Cl)c1 [Compound A27]
7. CC(Oc1ccc(C(C)(C)c2cc(Cl)c(OCCCl)c(C#N)c2)cc1)c1coc(NS(C)(=O)=O)n1 (stereo not drawn) [Compound A91]

500 to 2000 nM
500 to 2000 nM
< 500 nM
< 500 nM
500 to 2000 nM
> 2000 nM
500 to 2000 nM
